Could you please report measured IC50 for the items listed next?
- Test system: human monocytic leukemia cell line THP-1
- EXPERIMENTAL DETAILS: In vitro cell viability, CCK-8
- Assay type: cell-based
- CONDITION SET: Homo sapiens, THP-1; serum-free medium, 24 h; read-out: IC50 THP-1 SFM
Numbers only, in µM.

The following molecules have reported results that may help.
1) O=C(/C=C/c1ccc(Cl)c(Cl)c1)Nc1ccc(C(F)(F)F)cc1: 0.9
2) O=C(/C=C/c1ccc(Cl)c(Cl)c1)Nc1cccc(C(F)(F)F)c1: 1.9
3) O=C(/C=C/c1ccc(Cl)cc1)Nc1cc(C(F)(F)F)cc(C(F)(F)F)c1: 1
4) O=C(/C=C/c1ccc(Cl)c(Cl)c1)Nc1ccc(OC(F)(F)F)cc1: 1
5) O=C(/C=C/c1ccc(Cl)c(Cl)c1)Nc1cc(C(F)(F)F)cc(C(F)(F)F)c1: 0.5

List reported IC50 for each of these molecules:
1. O=C(/C=C/c1ccc(Cl)cc1)Nc1cccc(C(F)(F)F)c1
2. O=C(/C=C/c1ccc(Cl)cc1)Nc1cc(Cl)cc(Cl)c1
3. O=C(/C=C/c1ccc(Cl)c(Cl)c1)Nc1ccccc1

A)
1. 2.9
2. 2.5
3. 7.5

* * *

- EXPERIMENTAL DETAILS: Lipophilicity determination by RP-HPLC (log k, log D)
- Format: physicochemical
- CONDITION SET: MeOH 72%/acetate buffered saline pH 6.5
Could you please report measured log D6.5 for the items listed next?
Give bare numbers.

The following molecules have reported results that may help.
1. O=C(/C=C/c1ccc(Cl)c(Cl)c1)Nc1cccc(Cl)c1: 0.7816
2. O=C(/C=C/c1ccc(Cl)c(Cl)c1)Nc1ccc(OC(F)(F)F)cc1: 1.0544

Now let's try a different one.
Reported log D6.5 ( O=C(/C=C/c1ccc(Cl)c(Cl)c1)Nc1ccc(OC(F)(F)F)cc1Br ) = 1.2373

* * *

- EXPERIMENTAL DETAILS: Lipophilicity determination by RP-HPLC (log k, log D)
- Type: physicochemical
- CONDITION SET: MeOH 72%/acetate buffered saline pH 6.5
Lab note: class by log D6.5, see low class (below 0.7), middle class (0.7 to below 0.9), high class (0.9 or more)

Check out these entries, answers already filled in.
1) O=C(/C=C/c1ccc(Cl)c(Cl)c1)Nc1ccc(Cl)cc1 [2g]: middle class
2) O=C(/C=C/c1ccc(Cl)cc1)Nc1ccc(OC(F)(F)F)cc1Br [1r]: high class
3) O=C(/C=C/c1ccc(Cl)c(Cl)c1)Nc1ccccc1F [2b]: middle class
4) O=C(/C=C/c1ccc(Cl)cc1)Nc1ccccc1F [1b]: low class
5) O=C(/C=C/c1ccc(Cl)c(Cl)c1)Nc1cccc(C(F)(F)F)c1 [2i]: high class

Q) Exam item: assign O=C(/C=C/c1ccc(Cl)cc1)Nc1cccc(C(F)(F)F)c1 [1i] to the correct category.
A) middle class

Q) Exam item: assign O=C(/C=C/c1ccc(Cl)cc1)Nc1cc(F)cc(F)c1 [1m] to the correct category.
A) middle class

Q) Exam item: assign O=C(/C=C/c1ccc(Cl)c(Cl)c1)Nc1cccc(F)c1 [2c] to the correct category.
A) high class

Q) Exam item: assign O=C(/C=C/c1ccc(Cl)cc1)Nc1cc(C(F)(F)F)cc(C(F)(F)F)c1 [1q] to the correct category.
A) high class

Q) Exam item: assign O=C(/C=C/c1ccc(Cl)cc1)Nc1cccc(Cl)c1 [1f] to the correct category.
A) low class

Cited source for all entries: paper PMC8951032
